These data points were gathered from patent US12338262B2.

Molecular target: TNF-α (Homo sapiens, UniProt P01375)
Sequence (P01375 77-233 limits assumed): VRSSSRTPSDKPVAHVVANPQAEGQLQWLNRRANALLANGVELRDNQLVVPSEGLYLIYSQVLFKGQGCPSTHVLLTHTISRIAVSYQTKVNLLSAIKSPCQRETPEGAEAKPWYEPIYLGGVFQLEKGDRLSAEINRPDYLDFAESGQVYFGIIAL
Assay: TNF-α Induced HEK Blue Cellular Assay
Details: HEK Blue TNFα reporter cells, TNF-α 100 pg/ml, 24 hrs at 37° C., secreted alkaline phosphatase (QUANTI-Blue, 620 nm)
recorded.metric: IC50

[[record]]
molecule = "CC[C@@H](Nc1c(Cl)c(C)nc2cc(F)c(-c3ccc(P(C)(C)=O)nc3)nc12)c1ncccc1F"
result = "≤ 1 µM"

[[record]]
molecule = "Cc1nc2cc(F)c(-c3ccc(P4(=O)CCOCC4)nc3)nc2c(N[C@H](C)c2cc(C#N)ccc2F)c1Cl"
result = "1 to 10 µM"

[[record]]
molecule = "CC[C@H](Nc1c(Cl)c(C)nc2cc(F)c(-c3ccc(P(C)(C)=O)nc3)nc12)c1ccccn1"
result = "≤ 0.1 µM"

[[record]]
molecule = "Cc1nc2cc(F)c(-c3ccc(P4(=O)CCOCC4)nc3)nc2c(N[C@H](C)c2cccc(F)c2F)c1Cl"
result = "10 to 30 µM"

[[record]]
molecule = "CC[C@H](Nc1c(Cl)c(C)nc2cc(F)c(-c3cnc(OCP(C)(C)=O)nc3)nc12)c1cccc(F)c1F"
result = "≤ 0.1 µM"

[[record]]
molecule = "Cc1nc2cc(F)c(-c3cnc(P(C)(C)=O)c(F)c3)nc2c(N[C@H](C)c2cc(F)cc(F)c2)c1Cl"
result = "10 to 30 µM"


Next, consider the following molecule.
Entry C[C@@H](Nc1c(Cl)cnc2cc(F)c(-c3cnc(P(C)(C)=O)nc3)cc12)c1cc(C#N)ccc1F ; IC50 = ≤ 1 µM

====

Target: UniProt:P01375
Experiment: TNF-α Induced HEK Blue Cellular Assay
Conditions: HEK Blue TNFα reporter cells, TNF-α 100 pg/ml, 24 hrs at 37° C., secreted alkaline phosphatase (QUANTI-Blue, 620 nm)
pIC50: −log10 of the molar value.
recorded.metric: pIC50

Example cases with answers are listed next.
[[record]]
compound = "Cc1nc2cc(F)c(-c3ccc(P(C)(C)=O)nc3)nc2c(NC(C)c2ncccc2F)c1Cl (stereo not drawn)"
recorded_metric = "pIC50"
result = "≥ 6.00"

[[record]]
compound = "CC[C@@H](Nc1c(Cl)c(C)nc2cc(F)c(-c3ccc(P(C)(C)=O)nc3)nc12)c1cccc(F)c1F"
recorded_metric = "pIC50"
result = "≥ 7.00"

[[record]]
compound = "Cc1nc2cc(F)c(-c3cnc(P(C)(C)=O)nc3)nc2c(NC(c2ccccc2F)C(F)F)c1Cl (stereo not drawn)"
recorded_metric = "pIC50"
result = "≥ 6.00"

[[record]]
compound = "Cc1nc2cc(F)c(-c3cnc(OCP(C)(C)=O)nc3)nc2c(N[C@H](C)c2cccc(F)c2F)c1Cl"
recorded_metric = "pIC50"
result = "≥ 6.00"

[[record]]
compound = "Cc1nc2cc(F)c(-c3ccc(P(C)(C)=O)nc3)nc2c(N[C@H](C)c2ncccc2F)c1Cl (single isomer, unassigned)"
recorded_metric = "pIC50"
result = "≥ 7.00"

[[record]]
compound = "C#Cc1ccc(F)c([C@@H](C)Nc2c(Cl)c(C)nc3cc(F)c(-c4ccc(P(C)(C)=O)nc4)nc23)c1"
recorded_metric = "pIC50"
result = "≥ 6.00"


Entry CC[C@@H](Nc1c(Cl)c(C)nc2cc(F)c(-c3ccc(P(C)(C)=O)nc3)nc12)c1ccccc1F ; pIC50 = ≥ 7.00

Entry Cc1nc2cc(F)c(-c3ccc(P(C)(C)=O)nc3)nc2c(N[C@H](C)c2ccccn2)c1Cl ; pIC50 = ≥ 6.00

Entry CCOP(=O)(OCC)c1ccc(-c2nc3c(N[C@H](C)c4cc(C#N)ccc4F)c(Cl)c(C)nc3cc2F)cn1 ; pIC50 = ≥ 7.00

====

Overview of recorded IC50 for various molecules
Target: UniProt P01375
Experiment: TNF-α Induced HEK Blue Cellular Assay
Settings: HEK Blue TNFα reporter cells, TNF-α 100 pg/ml, 24 hrs at 37° C., secreted alkaline phosphatase (QUANTI-Blue, 620 nm)

Example cases with answers are listed next.
[[record]]
molecule = "Cc1nc2cc(F)c(-c3ccc(P(C)(C)=O)nc3)c(F)c2c(NC(C)c2ncccc2F)c1Cl (stereo not shown) [Example 97]"
result = "≤ 1000 nM"

[[record]]
molecule = "Cc1nc2cc(F)c(-c3ccc(P(C)(C)=O)nc3)nc2c(N[C@H](C)c2cccc(Cl)c2)c1Cl [Example 91]"
result = "≤ 100 nM"

[[record]]
molecule = "CCP(=O)(CC)c1ncc(-c2nc3c(N[C@H](C)c4cc(C#N)ccc4F)c(Cl)c(C)nc3cc2F)cn1 [Example 28]"
result = "≤ 100 nM"

[[record]]
molecule = "Cc1nc2cc(F)c(-c3cnc(P(C)(C)=O)c(F)c3)cc2c(N[C@H](C)c2cc(F)cc(F)c2)c1Cl [Example 129]"
result = "10000 to 30000 nM"

[[record]]
molecule = "Cc1nc2cc(F)c(-c3cnc(OCP(C)(C)=O)nc3)nc2c(N[C@H](C)c2cc(C#N)ccc2F)c1Cl [Example 121]"
result = "≤ 100 nM"


Entry CC[C@H](Nc1c(Cl)c(C)nc2cc(F)c(-c3ccc(P(C)(C)=O)nc3)nc12)c1cccc(F)c1F [Example 96] ; IC50 = ≤ 100 nM

Entry Cc1nc2cc(F)c(-c3ccc(P(C)(C)=O)nc3)nc2c(N[C@H](C)c2ccc(F)c(F)c2F)c1Cl (single isomer, unassigned) [Example 109] ; IC50 = ≤ 100 nM

Entry Cc1nc2cc(F)c(-c3cnc(P(C)(C)=O)nc3)nc2c(N[C@H](c2cc(C#N)ccc2F)C(F)F)c1Cl [Example 38] ; IC50 = ≤ 1000 nM

Entry Cc1nc2cc(F)c(-c3cnc(P(C)(C)=O)nc3)nc2c(N[C@@H](c2cc(C#N)ccc2F)C(F)F)c1Cl [Example 36] ; IC50 = ≤ 1000 nM

Entry Cc1nc2cc(F)c(-c3ccc(P(C)(C)=O)nc3)nc2c(N[C@@H](CO)c2cc(C#N)ccc2F)c1Cl (single isomer, unassigned) [Example 64] ; IC50 = 10000 to 30000 nM

Entry CC[C@@H](Nc1c(Cl)c(C)nc2cc(F)c(-c3ccc(P(C)(C)=O)nc3)nc12)c1cc(F)cc(F)c1 [Example 147] ; IC50 = 1000 to 10000 nM

====

Molecular target: TNF-α (Homo sapiens)
Experiment: TNF-α Induced HEK Blue Cellular Assay
Settings: HEK Blue TNFα reporter cells, TNF-α 100 pg/ml, 24 hrs at 37° C., secreted alkaline phosphatase (QUANTI-Blue, 620 nm)
pIC50: −log10 of the molar value.
Overview of recorded pIC50 for various compounds

[[record]]
compound = "Cc1nc2cc(F)c(-c3ccc(P(C)(C)=O)nc3)nc2c(N[C@H](c2cc(F)cc(F)c2)C2CC2)c1Cl [Example 139]"
result = "≥ 6.00"

[[record]]
compound = "CC[C@H](Nc1c(Cl)c(C)nc2cc(F)c(-c3ccc(P(C)(C)=O)nc3)nc12)c1ncccc1F [Example 68]"
result = "≥ 7.00"

[[record]]
compound = "CC[C@H](Nc1c(Cl)c(C)nc2cc(F)c(-c3cnc(P(C)(C)=O)nc3)nc12)c1ccccc1F [Example 17]"
result = "≥ 6.00"

[[record]]
compound = "Cc1nc2cc(F)c(-c3ccc(P(C)(C)=O)nc3)nc2c(N[C@H](c2cccc(F)c2F)C(F)F)c1Cl [Example 146]"
result = "5.00 to 6.00"


Entry Cc1nc2cc(F)c(-c3ccc(P(C)(C)=O)nc3)nc2c(N[C@H](C)c2ccccc2Cl)c1Cl [Example 87] ; pIC50 = 5.00 to 6.00

====

Target: TNF-α (Homo sapiens)
Assay: TNF-α Induced HEK Blue Cellular Assay
Settings: HEK Blue TNFα reporter cells, TNF-α 100 pg/ml, 24 hrs at 37° C., secreted alkaline phosphatase (QUANTI-Blue, 620 nm)
recorded.metric: IC50

[[record]]
compound = "Cc1nc2cc(F)c(-c3ccc(P4(=O)CCOCC4)nc3)cc2c(N[C@H](C)c2cccc(F)c2F)c1Cl"
result = "10 to 30 µM"


Entry Cc1nc2cc(F)c(-c3ccc(P(C)(C)=O)nc3)cc2c(N[C@H](C)c2cncnc2)c1Cl (single isomer, unassigned) ; IC50 = 10 to 30 µM

Entry Cc1nc2cc(F)c(-c3ccc(P(C)(C)=O)nc3)nc2c(N[C@@H](c2cccc(F)c2F)C(F)F)c1Cl (single isomer, unassigned) ; IC50 = 10 to 30 µM

Entry Cc1nc2cc(F)c(-c3ccc(P(C)(C)=O)nc3)nc2c(N[C@@H](c2ccccc2F)C(F)(F)F)c1Cl ; IC50 = ≤ 0.1 µM

Entry CCC(Nc1c(Cl)c(C)nc2cc(F)c(-c3ccc(P(C)(C)=O)nc3)nc12)c1ccn(C)n1 (centres unmarked) ; IC50 = 10 to 30 µM
